Ref: patent US20260116991A1

target: T1, monkey GPC3-His protein (monkey); test: SPR, antibody captured on Protein A chip, monkey GPC3-His analyte;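 further: run at 25 °C with 240 s association and up to 600 s dissociation, double-referenced, kinetics fitted to a 1:1 Langmuir binding model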
T1 construct: Bought recombinant protein; also called monkey GPC3 protein

binder	unit_annotation	kon
F1.9.19 (antibody, human IgG1, kappa, V domains shown, Human-murine chimeric antibody) VH: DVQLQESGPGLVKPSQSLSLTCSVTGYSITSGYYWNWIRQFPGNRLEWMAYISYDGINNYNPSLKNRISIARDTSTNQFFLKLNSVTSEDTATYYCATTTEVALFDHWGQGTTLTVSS VL: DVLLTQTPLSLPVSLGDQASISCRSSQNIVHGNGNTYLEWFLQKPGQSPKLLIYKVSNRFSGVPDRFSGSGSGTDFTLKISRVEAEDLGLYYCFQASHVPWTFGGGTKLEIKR	M⁻¹ s⁻¹	48000
F4.26.1 (antibody, human IgG1, kappa, V domains shown, Human-murine chimeric antibody) VH: QVQLKQSGPGLVQPSQSLSITCTVSGFSLTSYGVHWVRQSPGKGLEWLGVIWSSGNTDYNAVLISRLSIKKDDSKSQVFFKMNSPQVDDSAIYYCGRNGGWLLRGFMDFWGQGTSVTVSS VL: DVVMTQTPLSLPVSLGDQASISCRSSQSLLHSNGNTYLHWYLQRSGQSPNLLIYKVSNRFSGVPDRFSGGGSGTDFTLKISRVEAEDLGIYFCSQSTHVPWTFGGGTKLEIKR	M⁻¹ s⁻¹	425000
F1.92.17 (antibody, human IgG1, kappa, V domains shown, Human-murine chimeric antibody) VH: EVQLQQSGPELVKPGASVKMSCKASGYTFTDYNMHWVRQSHGKSLEWIGYINPNNGDTIYNQNFKGKATLTVNKSSSTAYMELRSLTSEDSAVYYCSRTITYYYSMDYWGPGTSVTVSS VL: QIVLTQSPALMSASPGEKVTMTCSASSSVSYMYWYQQKPRSSPKPWIYLTSNLASGVPARFSGSGSGTSYSLTISSMEAEDAATYYCQQWSSNPLTFGAGTKLELKR	M⁻¹ s⁻¹	27400
